Test: yeast TOR pathway RPL19A-GFP modulators, primary screen, cell-based, S. cerevisiae, multiplex flow cytometry (AID 1862);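 further: lower values mimic rapamycin by blocking the RPL19A rise seen in DMSO cells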
Details: S. cerevisiae RPL19A-GFP strain, flow cytometry fluorescence, 3 h; at 10 µM; active compounds read low
Records with an inconclusive call do not appear.
reported_endpoint: percent of DMSO control GFP (%)
Numeric answer only, unit % assumed.

compound CC(=O)OCC(=O)[C@@]12OC3(CCCC3)O[C@@H]1C[C@H]1[C@@H]3CCC4=CC(=O)C=C[C@]4(C)[C@@]3(F)[C@@H](O)C[C@@]12C , percent of DMSO control GFP observed: 98.5

compound CN1C(=O)C(O)(CC(=O)/C=C/C=C/c2ccccc2)c2ccccc21 (stereo not drawn) , percent of DMSO control GFP observed: 104

compound CC1=CC(C)(C)N2C(=O)C3(NCCc4c3[nH]c3ccccc43)c3cc(C)cc1c32 (stereo not drawn) , percent of DMSO control GFP observed: 103

compound O=C(O)CC(O)C(=O)O (stereo not drawn) , percent of DMSO control GFP observed: 101

compound Cc1ccc(-n2ncc3c(Nc4cccc(C(=O)O)c4)ncnc32)cc1 , percent of DMSO control GFP observed: 100

compound COc1cc(Cl)cc2c1Sc1ccccc1/C2=C/CCN(C)C , percent of DMSO control GFP observed: 97.1

compound CN1C(=O)C(O)(CC(=O)c2ccccc2O)c2cc(Br)ccc21 (stereo not drawn) , percent of DMSO control GFP observed: 100

compound C=C(C)COc1ccc(-c2n[nH]c(C)c2-c2ccc(OC)cc2)c(O)c1 , percent of DMSO control GFP observed: 105

compound O=C(/C=C/c1ccco1)N1CCN(c2ccccc2)CC1 , percent of DMSO control GFP observed: 103

compound CN(C)CCC(c1ccc(Br)cc1)c1ccccn1 (stereo not drawn) , percent of DMSO control GFP observed: 103

compound CC(=O)N1N=C(c2cccs2)CC1c1ccc(C)o1 (stereo not drawn) , percent of DMSO control GFP observed: 92.8

compound CN1CCCC(OC(=O)c2ccc3c(c2)OCCO3)C1 (stereo not drawn) , percent of DMSO control GFP observed: 101

compound CC(C)C[C@H](NC(=O)[C@@H]1Cc2ccccc2CN1C(=O)OC(C)(C)C)C(=O)NCC1CCC(C(=O)O)CC1 (stereo partly drawn) , percent of DMSO control GFP observed: 99.3

compound CC[C@H]1OC(=O)[C@H](C)[C@@H](O[C@H]2C[C@@](C)(OC)[C@@H](O)[C@H](C)O2)[C@H](C)[C@@H](O[C@@H]2O[C@H](C)C[C@H](N(C)C)[C@H]2O)[C@](C)(O)C[C@@H](C)[C@@H]2N[C@@H](COCCOC)O[C@H]([C@H]2C)[C@]1(C)O , percent of DMSO control GFP observed: 95

compound CCCC1O[C@@H]2C[C@H]3[C@@H]4CCC5=CC(=O)C=C[C@]5(C)[C@H]4[C@@H](O)C[C@]3(C)[C@]2(C(=O)CO)O1 (stereo partly drawn) , percent of DMSO control GFP observed: 100

compound O=C(O)/C=C/c1ccc(O)c(O)c1 , percent of DMSO control GFP observed: 101

compound CCOc1cccc(N2C(=O)CC(N(CCc3ccc(OC)c(OC)c3)C(=O)CC)C2=O)c1 (stereo not drawn) , percent of DMSO control GFP observed: 101

compound CCNC(=S)Nc1ccc(OC(F)(F)F)cc1 , percent of DMSO control GFP observed: 105

compound CCOc1ccccc1OCCOc1ccc(F)cc1 , percent of DMSO control GFP observed: 101

compound Oc1c(Cl)cc(Cl)c(Cl)c1Cc1c(O)c(Cl)cc(Cl)c1Cl , percent of DMSO control GFP observed: 107

compound O=C1NCC2=C1C(c1ccccc1)Nc1ccccc1N2 (stereo not drawn) , percent of DMSO control GFP observed: 94.6

compound COc1ccc(-c2coc3cc(O)cc(O)c3c2=O)cc1 , percent of DMSO control GFP observed: 88.2

compound Cc1nc(C(=O)Nc2ccccc2Cl)cc2c1[nH]c1ccccc12 , percent of DMSO control GFP observed: 99.6

compound COc1ccc(OC)c(-c2oc3ccccc3c(=O)c2O)c1 , percent of DMSO control GFP observed: 102

compound COc1ccccc1C1C(C#N)=C(N)Oc2c1oc(CO)cc2=O (stereo not drawn) , percent of DMSO control GFP observed: 102

compound CCOc1cc2oc(=O)c3c(c2cc1Cl)CCC3 , percent of DMSO control GFP observed: 104

compound Cn1c(=O)oc2cc(S(=O)(=O)N3CCc4ccccc4C3)ccc21 , percent of DMSO control GFP observed: 101

compound C#C[C@]1(O)CC[C@H]2[C@@H]3CCC4=C(CCC(=O)C4)[C@H]3CC[C@@]21C , percent of DMSO control GFP observed: 97.1

compound Nc1nc2ccc(OC(F)(F)F)cc2s1 , percent of DMSO control GFP observed: 100

compound O=C(NCCCCCc1nc2ccccc2[nH]1)c1ccccc1Cl , percent of DMSO control GFP observed: 101

compound COC(=O)c1cc(OC)c(OC)c(OC)c1[N+](=O)[O-] , percent of DMSO control GFP observed: 103

compound O=C(O)c1ccccc1O , percent of DMSO control GFP observed: 101

compound Cc1ccc(C(CC(=O)NCc2ccco2)c2ccc(OC(C)C)cc2)cc1 (stereo not drawn) , percent of DMSO control GFP observed: 99.8
